The measurements presented in this section are drawn from a melting point compilation (Tetko et al.).

The following molecules are listed with their measured melting point values.

N#Cc1ccnc(-n2ccnc2)c1 ... 148 to 150 °C
O=c1nncc2[nH]cccc1-2 ... 269 to 271 °C
CCCn1c(C)c(C(=O)O)c2cc(OC)ccc21 ... 171 to 173 °C
CN(C(=O)c1ccc(Cl)cc1)c1ccc(N)cc1 ... 152 to 154 °C
NS(=O)(=O)Cc1cccnc1 ... 154 to 156 °C
Cc1nccc(N)c1Cl ... 110 to 112 °C

Note to self: melting point recorded for `COCc1ccc(C(=O)O)cc1OC` was 164 to 166 °C

So, `Nc1noc(-c2ccsc2)n1` ? Its melting point was 196 to 198 °C

Input `CC(C)n1ccc(=O)nc1S` . Output melting point: 254 to 256 °C

melting point reported for this molecule `O=C(O)C(=Cc1ccco1)NC(=O)c1ccccc1` : 209 to 211 °C

The value of melting point measured for the molecule `C[C@H](NC(=O)c1cccc([N+](=O)[O-])c1)C(=O)O` turned out to be 159 to 161 °C

Just so you know, measured melting point for `O=C(O)c1cc(-c2ccncc2)nc2ccc(Br)cc12` came out at 340 to 342 °C

The value of melting point measured for the molecule `COC(=O)c1cc(Oc2ccc(Cl)cc2)ccc1N` turned out to be 74 to 76 °C
